Test system: HCMV UL97-T409M
Assay: HCMV reporter-based antiviral assay, drug-resistant mutant
Assay type: cell-based, human cytomegalovirus
Conditions: Human betaherpesvirus 5, read-out: Measured EC50 ref. drugs UL97-T409M
METRIC: EC50 (µM)
Give bare numbers, in µM.

>>> print(df.to_string())
                                   compound  endpoint_result
0  Nc1ccn(C[C@@H](CO)OCP(=O)(O)O)c(=O)n1 [CDV, cidofovir]             0.26

Switching to the query record.
Exercise: Given the compound Nc1nc(O)c2ncn(COC(CO)CO)c2n1 [GCV, ganciclovir] , what is its reported EC50?
Solution: 1.98
